Hey, just so you know, these numbers are from patent US7759486B2.

Consider the following compounds and their measured melting point readings.

• Cc1cc(F)ccc1-c1nc(N[C@@H](C)CO)nc2c1ccc(=O)n2-c1ccccc1F [Example 141] = 114 to 120 °C
• CCNc1nc(-c2ccc(F)cc2C)c2ccc(=O)n(-c3ccccc3F)c2n1 [Example 140] = 176 to 177 °C
• Cc1cc(F)ccc1-c1nc(NCC(F)(F)F)nc2c1ccc(=O)n2-c1c(F)cccc1F [Example 153] = 195 to 196 °C
• Cc1cc(F)ccc1-c1nc(OCC(CO)CO)nc2c1ccc(=O)n2-c1c(F)cccc1F [Example 133] = 77 to 81 °C
• Cc1cc(F)ccc1-c1nc(OCCCS(C)(=O)=O)nc2c1ccc(=O)n2-c1c(F)cccc1F [Example 128] = 160 to 162 °C
• CCC(=O)NCCNc1nc(-c2ccc(F)cc2C)c2ccc(=O)n(-c3c(F)cccc3F)c2n1 [Example 165] = 214 to 216 °C
• CCNC(=O)CNc1nc(-c2ccc(F)cc2C)c2ccc(=O)n(-c3c(F)cccc3F)c2n1 [Example 192] = 250 to 253 °C (dec.)
• Cc1cc(F)ccc1-c1nc(NCCNC(=O)OC(C)(C)C)nc2c1ccc(=O)n2-c1c(F)cccc1F [Example 167] = 106 to 119 °C
• Cc1cc(F)ccc1-c1nc(NC(C)(CO)CO)nc2c1ccc(=O)n2-c1ccccc1F [Example 152] = 160 to 162 °C
• Cc1cc(F)ccc1-c1nc(Nc2c[nH]c(=O)[nH]c2=O)nc2c1ccc(=O)n2-c1c(F)cccc1F [Example 168] = > 300 °C

Task: Given Cc1cc(F)ccc1-c1nc(NCCNC(=O)c2ccccc2)nc2c1ccc(=O)n2-c1c(F)cccc1F [Example 163] , respond with its melting point.
Output: 246 to 248 °C

Task: Given Cc1cc(F)ccc1-c1nc(NCCNC(=O)Nc2ccccc2)nc2c1ccc(=O)n2-c1c(F)cccc1F [Example 159] , respond with its melting point.
Output: 142 to 148 °C
